Assay: Cytotoxicity against human Corneal fibroblasts assessed cell viability at 30 uM after 24 hrs by Cell Titer-Glo luminescent assay
Format: cell-based, Corneal fibroblast
Details: read-out: Activity
readout: viability at 24 h, 30 µM (%)

>>> result_value("COC(=O)[C@H](CCCNC(=N)N)NC(=O)COc1cc(O)c2c(=O)c(OCC(=O)N[C@@H](CCCNC(=N)N)C(=O)OC)c(-c3ccc(OC)cc3)oc2c1CC=C(C)C")
98.2

###

# maps each entry to its MIC
Tested on: Staphylococcus aureus
Assay: Antibacterial activity against methicillin-resistant Staphylococcus aureus DM 9808R after 24 hrs by broth microdilution method
Format: functional
readout: MIC (µM)

>>> result_value("COC(=O)[C@H](CCCNC(=N)N)NC(=O)COc1cc(O)c2c(=O)c(OCC(=O)N[C@@H](CCCNC(=N)N)C(=O)OC)c(-c3ccc(OC)cc3)oc2c1CC=C(C)C")
3.8
>>> result_value("COC(=O)[C@H](CCCCN)NC(=O)COc1cc(O)c2c(=O)c(OCC(=O)N[C@@H](CCCCN)C(=O)OC)c(-c3ccc(OC)cc3)oc2c1CC=C(C)C")
32.5
>>> result_value("COc1ccc(-c2oc3c(CC=C(C)C)c(OCCBr)cc(O)c3c(=O)c2OCCBr)cc1")
10
>>> result_value("COC(=O)[C@H](CCCNC(=N)N)NC(=O)[C@H](CCCNC(=N)N)NC(=O)COc1cc(O)c2c(=O)c(OCC(=O)N[C@@H](CCCNC(=N)N)C(=O)N[C@@H](CCCNC(=N)N)C(=O)OC)c(-c3ccc(OC)cc3)oc2c1CC=C(C)C")
5.5

meta.source: ChEMBL document CHEMBL4011638
